meta.source: PubChem BioAssay

procedure.text: small molecules captured by biotinylated probe aFST – biochemical, small-molecule microarray, fluorescence 635/667, stem cell growth factor project, primary screen (AID 1086);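 further: score merges 667 nm fluorescence with signal-to-noise of each printed compound spot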
experimental.conditions: higher = more signal
value.kind: composite z-score

Illustrative cases are given below, each with its answer.
compound=COc1ccccc1CN1C(=O)c2ccccc2[C@](Cc2ccccc2I)(C(=O)NC2CC2)[C@@H]1c1ccc(CO)cc1 value_kind="composite z-score" reported_value=0.653
compound=CC(C)CNC(=O)[C@@]1(C)c2ccccc2C(=O)N(C(C)C)[C@H]1c1ccc(CO)cc1 value_kind="composite z-score" reported_value=-0.37
compound="CN1C(=O)C2C(C1=O)C1C=C(c3ccc(CO)cc3)C2C(C2CC2)N1Cc1cc2c(cc1Br)OCO2 (centres undefined)" value_kind="composite z-score" reported_value=0.917

With those in mind, consider the next compound.
// query Provide measured composite z-score value, entry: `COc1ccc([Si](C)(C)[C@@H]2[C@@H](CCO)O[C@]3(C(=O)N(Cc4cccc(N(C=O)c5ccccc5)c4)c4ccccc43)[C@H]2C)cc1`
// result 0.316
